- tested-system: h-5-HT6 receptor (Homo sapiens, UniProt P50406)
- Construct: expressed in transfected cells
- Sequence (P50406 whole entry): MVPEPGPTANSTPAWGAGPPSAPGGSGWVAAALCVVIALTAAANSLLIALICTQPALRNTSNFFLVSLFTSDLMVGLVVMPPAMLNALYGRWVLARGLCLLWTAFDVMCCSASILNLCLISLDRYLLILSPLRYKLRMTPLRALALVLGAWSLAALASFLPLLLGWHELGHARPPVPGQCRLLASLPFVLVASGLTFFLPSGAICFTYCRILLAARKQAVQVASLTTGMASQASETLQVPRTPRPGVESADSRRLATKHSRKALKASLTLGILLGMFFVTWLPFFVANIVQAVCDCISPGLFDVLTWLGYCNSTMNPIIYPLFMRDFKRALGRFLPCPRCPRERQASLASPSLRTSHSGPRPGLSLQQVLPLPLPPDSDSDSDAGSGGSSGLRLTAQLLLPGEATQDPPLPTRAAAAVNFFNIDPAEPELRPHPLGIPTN
- protocol: 5-HT6 receptor binding assay (displacement of [3H]-LSD)
- condition-info: membranes of HEK293 cells expressing h-5-HT6 receptor, 1 nM [3H]-LSD; read-out: Ki(5HT6)
pKi: −log10 of the molar value. Structures can show the parent of a compound that is named as a salt.
measured-parameter: pKi

Use these answered entries as a reference point.
compound	pKi
O=S(=O)(Nc1cccc(N2CCNCC2)c1)c1cccc(OC(F)F)c1 [Example 28, Hydrochloride]	> 7.30
COc1ccc(NS(=O)(=O)c2cccc3c2OC(F)(F)O3)cc1N1CCNCC1 [Example 4, Hydrochloride]	> 8.00
COc1ccc(N(CCCF)S(=O)(=O)c2cccc(OC(F)F)c2)cc1N1CCNCC1 [Example 17, Hydrochloride]	> 7.30
O=S(=O)(Nc1ccc(OCCF)c(N2CCNCC2)c1)c1cccc2c1OC(F)(F)O2 [Example 12, Hydrochloride]	> 7.30
O=S(=O)(Nc1ccc(OC(F)F)c(N2CCNCC2)c1)c1ccccc1OC(F)F [Example 7, Trifluoroacetate]	> 7.30

Asked: Item COc1ccc(NS(=O)(=O)c2ccc(OC(F)F)cc2)cc1N1CCN(C)CC1 : provide pKi
Given back: > 7.70

Asked: Item COc1ccc(NS(=O)(=O)c2cccc(OC(F)F)c2)cc1N1CCNCC1 [Example 1, Hydrochloride] : provide pKi
Given back: > 8.00

Asked: Item COc1ccc(NS(=O)(=O)c2ccc(OC(F)F)cc2)cc1N1CCNCC1 [Example 15, Hydrochloride] : provide pKi
Given back: > 7.30

Asked: Item COc1ccc(S(=O)(=O)Nc2ccc(OC)c(N3CCNCC3)c2)cc1OC(F)F [Example 13, Hydrochloride] : provide pKi
Given back: > 8.00
